Where do the numbers come from? From patent US8658661B2.

Molecular target: recombinant human FLAP protein (Homo sapiens, UniProt P20292)
Construct: made in house; host or cells: Sf9 insect cells (100,000×g membrane pellet used)
Experiment: FLAP binding assay (SPA, displacement of [125I]L-691,831)
Conditions: membranes of sf9 cells expressing recombinant human FLAP; [125I]L-691,831 probe; read-out: FLAP binding IC50
Measured IC50, listed per entry.
The reply should contain only the number, in nM.

>  <compound>
CC(C)C(C)(c1ccc(-c2cnc(N)nc2)cc1)c1noc(N2CCN(CC(=O)O)CC2)n1 (stereo not shown)

>  <IC50 (nM)>
280

$$$$

IN: // query IC50 value for entry COCCn1cc(-c2nc([C@@](C)(c3ccc(-c4cnc(N)cn4)cc3)C3CC3)no2)cn1
OUT: 5.9

IN: How about this compound: CC(C)(O)Cn1cc(-c2nc([C@@](C)(c3ccc(-c4ccc(N)nc4)cc3)C3CC3)no2)cn1
OUT: 2.4

IN: How about this compound: CC(C)C(C)(c1ccc(-c2cnc(N)nc2)cc1)c1noc(-c2cnco2)n1 (stereo not shown)
OUT: 2.8

IN: How about this compound: C[C@@](c1ccc(-c2cnc(N)nc2)cc1)(c1noc(-c2cnc(N3CCNCC3)cn2)n1)C1CC1
OUT: 2.2

IN: How about this compound: CC(C)C(C)(c1ccc(-c2cnc(N)nc2)cc1)c1noc(N2CCC(S(C)(=O)=O)CC2)n1 (stereo not shown)
OUT: 13

IN: How about this compound: C[C@@](c1ccc(-c2cnc(N)nc2)cc1)(c1noc(-c2cnn(C3COC3)c2)n1)C1CCC1
OUT: 1.6

IN: How about this compound: CC(C)C(C)(c1ccc(-c2cnc(N)nc2)cc1)c1noc(N2CCN(CC(=O)N(C)C)CC2)n1 (stereo not shown)
OUT: 18

IN: How about this compound: Cn1cc(-c2nc(C(C)(c3ccc(-c4cnc5[nH]ccc5n4)cc3)C3CC3)no2)cn1 (stereo not shown)
OUT: 6.1

IN: How about this compound: Cc1cc(-c2ccc([C@](C)(c3noc(-c4cnn(C)c4)n3)C3CC3)cc2)cnc1N
OUT: 1.9

IN: How about this compound: CC(C)(O)Cn1cc(-c2nc([C@@](C)(c3ccc(-c4cnc(N)nc4)cc3)C3CC3)no2)cn1
OUT: 1.2

IN: How about this compound: CC(C)C(C)(c1ccc(-c2cnc(N)nc2)cc1)c1noc(C2CCCNC2)n1 (stereo not shown)
OUT: 66

* * *

Target: recombinant human FLAP protein (Homo sapiens)
Construct: made in house; host or cells: Sf9 insect cells (100,000×g membrane pellet used)
Sequence (P20292 1-161): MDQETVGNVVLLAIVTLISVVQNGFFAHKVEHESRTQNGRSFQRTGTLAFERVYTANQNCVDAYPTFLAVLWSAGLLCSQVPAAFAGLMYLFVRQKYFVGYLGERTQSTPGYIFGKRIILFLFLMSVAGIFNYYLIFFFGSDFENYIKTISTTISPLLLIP
Assay: FLAP binding assay (SPA, displacement of [125I]L-691,831)
Conditions: membranes of sf9 cells expressing recombinant human FLAP; [125I]L-691,831 probe; read-out: FLAP binding IC50
measurement-kind: log10 of IC50 (log10 of the value in nM)
All values: base-10 log of IC50 in nM.

>  <molecule>
C[C@](c1ccc(-c2cnc(N)nc2)cc1)(c1noc(-c2cnc(N3CCNCC3)cn2)n1)C1CC1

>  <measurement-kind>
log10 of IC50

>  <experimental-result>
1.08

$$$$

IN: // query log10 of IC50 value for entry CC(=O)N1CCC(NC(=O)c2nc(C(C)(c3ccc(-c4cnc(N)nc4)cc3)C(C)C)no2)CC1 (stereo not shown)
OUT: 2.28

IN: How about this molecule: Cc1nc(N)ncc1-c1ccc([C@](C)(c2noc(-c3cnn(CC(=O)N(C)C)c3)n2)C2CC2)cc1
OUT: 0.86

IN: How about this molecule: COCCNc1cnc(-c2nc(C(C)(c3ccc(-c4cnc(N)nc4)cc3)C3CC3)no2)cn1 (stereo not shown)
OUT: 0.18

IN: How about this molecule: CC(C)C(C)(c1ccc(-c2cnc(N)nc2)cc1)c1noc(-c2cccc(S(C)(=O)=O)c2)n1 (stereo not shown)
OUT: 1.15

IN: How about this molecule: CC(C)(O)Cn1cc(-c2nc([C@@](C)(c3ccc(-c4cnc(N)cn4)cc3)C3CC3)no2)cn1
OUT: 0.34

IN: How about this molecule: CC(C)C(C)(c1ccc(-c2cnc(N)nc2)cc1)c1noc(N2CCNC(=O)C2)n1 (stereo not shown)
OUT: 1.51

IN: How about this molecule: COCCOCc1nc(C(C)(c2ccc(-c3cnc(N)nc3)cc2)C(C)C)no1 (stereo not shown)
OUT: 2.00

IN: How about this molecule: CN(C)C(=O)Cn1cc(-c2nc(C(C)(c3ccc(-c4cnc5c(c4)CCN5)cc3)C3CC3)no2)cn1 (stereo not shown)
OUT: 0.53
